Target: T1, recombinant human CD63 extracellular loop 2 expressed with a C-terminal human Fc tag (human)
T1 construct: also called hCD63 EC loop 2-hFc; human CD63 EC loop 2-Fc
T1 sequence (chain, as listed by the source limits assumed): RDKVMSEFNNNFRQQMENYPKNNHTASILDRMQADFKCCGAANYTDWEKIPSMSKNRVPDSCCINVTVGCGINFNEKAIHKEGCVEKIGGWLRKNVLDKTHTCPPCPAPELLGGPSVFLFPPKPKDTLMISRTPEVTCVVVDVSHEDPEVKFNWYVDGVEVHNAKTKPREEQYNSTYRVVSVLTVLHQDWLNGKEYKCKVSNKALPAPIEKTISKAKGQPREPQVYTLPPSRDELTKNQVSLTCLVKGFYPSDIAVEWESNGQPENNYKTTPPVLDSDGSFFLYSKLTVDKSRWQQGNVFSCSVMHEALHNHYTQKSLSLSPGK
Experiment: SPR Biacore, mAb captured, 25C
measurement-type: kon
Write the quantity with the unit trailing the number.

Known kon results, listed for orientation:
H1M12362N (antibody, V domains shown) VH: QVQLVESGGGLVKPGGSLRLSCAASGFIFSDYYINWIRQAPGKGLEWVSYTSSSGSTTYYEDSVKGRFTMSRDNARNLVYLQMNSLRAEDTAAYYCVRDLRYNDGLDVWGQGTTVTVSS VL: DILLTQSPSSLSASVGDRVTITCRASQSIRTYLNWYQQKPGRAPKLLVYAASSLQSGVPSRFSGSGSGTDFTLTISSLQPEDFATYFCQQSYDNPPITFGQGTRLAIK
477000 M⁻¹ s⁻¹
H1M12386N (antibody, V domains shown) VH: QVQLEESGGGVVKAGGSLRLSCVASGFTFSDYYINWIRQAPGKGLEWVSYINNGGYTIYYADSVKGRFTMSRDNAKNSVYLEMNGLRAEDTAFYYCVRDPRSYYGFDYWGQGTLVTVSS VL: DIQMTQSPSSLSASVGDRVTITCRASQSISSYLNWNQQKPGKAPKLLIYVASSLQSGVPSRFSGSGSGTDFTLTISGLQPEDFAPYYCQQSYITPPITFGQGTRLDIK
654000 M⁻¹ s⁻¹

## Input // kon lookup, key: H2M12452N (antibody, V domains shown, also called H2aM12452N) VH: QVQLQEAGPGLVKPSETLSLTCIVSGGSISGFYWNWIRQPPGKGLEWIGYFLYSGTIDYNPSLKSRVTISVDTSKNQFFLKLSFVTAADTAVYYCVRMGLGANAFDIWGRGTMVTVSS VL: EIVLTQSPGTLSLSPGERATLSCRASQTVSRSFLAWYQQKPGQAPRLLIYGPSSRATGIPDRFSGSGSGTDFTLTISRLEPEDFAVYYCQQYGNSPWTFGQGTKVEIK
## Output 122000 M⁻¹ s⁻¹

## Input // kon lookup, key: H1M12388N (antibody, V domains shown) VH: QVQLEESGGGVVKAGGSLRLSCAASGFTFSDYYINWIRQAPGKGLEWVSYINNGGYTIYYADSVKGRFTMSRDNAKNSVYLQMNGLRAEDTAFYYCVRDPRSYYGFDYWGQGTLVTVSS VL: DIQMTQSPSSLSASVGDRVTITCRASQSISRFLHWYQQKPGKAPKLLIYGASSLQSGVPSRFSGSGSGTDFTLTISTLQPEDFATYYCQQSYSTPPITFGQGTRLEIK
## Output 728000 M⁻¹ s⁻¹

## Input // kon lookup, key: H1M12451N (antibody, V domains shown) VH: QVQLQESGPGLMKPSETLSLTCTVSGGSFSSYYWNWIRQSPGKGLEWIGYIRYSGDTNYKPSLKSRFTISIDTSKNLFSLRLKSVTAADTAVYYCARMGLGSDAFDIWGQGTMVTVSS VL: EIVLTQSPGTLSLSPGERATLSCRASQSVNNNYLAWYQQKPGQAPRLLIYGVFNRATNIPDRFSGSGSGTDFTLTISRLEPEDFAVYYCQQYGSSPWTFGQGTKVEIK
## Output 119000 M⁻¹ s⁻¹

## Input // kon lookup, key: H2M12454N (antibody, V domains shown, also called H2bM12454N) VH: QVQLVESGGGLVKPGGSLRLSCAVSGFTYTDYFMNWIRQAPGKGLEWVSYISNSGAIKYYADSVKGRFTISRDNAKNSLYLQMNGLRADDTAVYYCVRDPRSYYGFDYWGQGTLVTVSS VL: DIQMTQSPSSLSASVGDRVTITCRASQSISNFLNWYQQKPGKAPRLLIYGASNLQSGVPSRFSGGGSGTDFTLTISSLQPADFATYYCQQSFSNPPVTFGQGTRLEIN
## Output 688000 M⁻¹ s⁻¹

## Input // kon lookup, key: H2M12385N (antibody, V domains shown, also called H2bM12385N; H2bM12385) VH: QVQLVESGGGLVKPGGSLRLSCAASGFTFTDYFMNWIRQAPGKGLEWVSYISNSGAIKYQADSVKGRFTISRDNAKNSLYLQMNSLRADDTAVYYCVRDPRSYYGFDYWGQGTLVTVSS VL: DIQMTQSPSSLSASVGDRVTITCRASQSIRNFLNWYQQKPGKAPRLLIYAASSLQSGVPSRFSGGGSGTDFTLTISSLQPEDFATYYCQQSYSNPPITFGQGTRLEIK
## Output 592000 M⁻¹ s⁻¹
